Target: T1, elongation initiation factor 4E (eIF4E) (UniProt P06730 2-217, limits assumed)
T1 construct: mature; In SPR it was amine-coupled to a CM5 chip with m7GTP present; also called full-length eIF4E; GS-eIF4E (biotinylated form used only for phage panning)
T1 sequence (P06730 2-217 limits assumed): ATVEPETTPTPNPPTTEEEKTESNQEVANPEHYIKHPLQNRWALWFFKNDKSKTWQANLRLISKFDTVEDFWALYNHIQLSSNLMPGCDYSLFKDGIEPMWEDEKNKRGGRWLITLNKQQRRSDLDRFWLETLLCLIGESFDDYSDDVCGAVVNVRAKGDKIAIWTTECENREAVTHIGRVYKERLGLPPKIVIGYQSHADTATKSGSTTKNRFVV
Test: SPR (Biacore T100), eIF4E immobilised on CM5 chip, peptide as analyte
Procedure: Running buffer consisted of 10 mM Hepes pH 7.6, 0.15 M NaCl, and 0.1% Tween20. Stock/DMSO diluted peptide solutions were diluted into 1.03× running buffer to make a peptide solution with 3% DMSO final concentration. […] Six buffer blanks were first injected to equilibrate the instrument fully and then a solvent correction curve was performed followed by a further two blank injections. […] Using a flow rate of 50 μl/min, compounds were injected for 60 s and dissociation was monitored for 180 s. […]
Mark each entry T if its Kd sits below 400 nM, and F for all others.

ACEMGWFQDCG (HELM PEPTIDE1{A.C.E.M.G.W.F.Q.D.C.G.[am]}$PEPTIDE1,PEPTIDE1,2:R3-10:R3$$$V2.0; SMILES CSCC[C@@H]1NC(=O)[C@H](CCC(=O)O)NC(=O)[C@@H](NC(=O)[C@H](C)N)CSSC[C@@H](C(=O)NCC(N)=O)NC(=O)[C@H](CC(=O)O)NC(=O)[C@H](CCC(N)=O)NC(=O)[C@H](Cc2ccccc2)NC(=O)[C@H](Cc2c[nH]c3ccccc23)NC(=O)CNC1=O, EE-02 with F6W) [EE-31] | F

## Input I wonder whether ACEMGYFQDCG (HELM PEPTIDE1{A.C.E.M.G.Y.F.Q.D.C.G.[am]}$PEPTIDE1,PEPTIDE1,2:R3-10:R3$$$V2.0; SMILES CSCC[C@@H]1NC(=O)[C@H](CCC(=O)O)NC(=O)[C@@H](NC(=O)[C@H](C)N)CSSC[C@@H](C(=O)NCC(N)=O)NC(=O)[C@H](CC(=O)O)NC(=O)[C@H](CCC(N)=O)NC(=O)[C@H](Cc2ccccc2)NC(=O)[C@H](Cc2ccc(O)cc2)NC(=O)CNC1=O, EE-02 with F6Y) [EE-30 (ACEMGYFQDCG)] has Kd below 400 nM. Can you tell?
## Output T

## Input I wonder whether ACEMXFFQDCG (sarcosine (Sar) at position 5; free N-terminal amine; C-terminal amide; disulphide bond between Cys2 and Cys10, EE-02 with G5 replaced by sarcosine) [EE-28] has Kd below 400 nM. Can you tell?
## Output F

## Input I wonder whether ACEMGYYQDCG (HELM PEPTIDE1{A.C.E.M.G.Y.Y.Q.D.C.G.[am]}$PEPTIDE1,PEPTIDE1,2:R3-10:R3$$$V2.0; SMILES CSCC[C@@H]1NC(=O)[C@H](CCC(=O)O)NC(=O)[C@@H](NC(=O)[C@H](C)N)CSSC[C@@H](C(=O)NCC(N)=O)NC(=O)[C@H](CC(=O)O)NC(=O)[C@H](CCC(N)=O)NC(=O)[C@H](Cc2ccc(O)cc2)NC(=O)[C@H](Cc2ccc(O)cc2)NC(=O)CNC1=O, EE-02 with F6Y and F7Y) [EE-37] has Kd below 400 nM. Can you tell?
## Output T

## Input I wonder whether ACEXGFFQDCG (HELM PEPTIDE1{A.C.E.[O=C([C@H](CC1CCC1)N[*:1])[*:2]].G.F.F.Q.D.C.G.[am]}$PEPTIDE1,PEPTIDE1,2:R3-10:R3$$$V2.0; SMILES C[C@H](N)C(=O)N[C@H]1CSSC[C@@H](C(=O)NCC(N)=O)NC(=O)[C@H](CC(=O)O)NC(=O)[C@H](CCC(N)=O)NC(=O)[C@H](Cc2ccccc2)NC(=O)[C@H](Cc2ccccc2)NC(=O)CNC(=O)[C@H](CC2CCC2)NC(=O)[C@H](CCC(=O)O)NC1=O, EE-02 with M4 replaced by cyclobutylalanine) [EE-23] has Kd below 400 nM. Can you tell?
## Output F

## Input I wonder whether ACEMGFWQDCG (HELM PEPTIDE1{A.C.E.M.G.F.W.Q.D.C.G.[am]}$PEPTIDE1,PEPTIDE1,2:R3-10:R3$$$V2.0; SMILES CSCC[C@@H]1NC(=O)[C@H](CCC(=O)O)NC(=O)[C@@H](NC(=O)[C@H](C)N)CSSC[C@@H](C(=O)NCC(N)=O)NC(=O)[C@H](CC(=O)O)NC(=O)[C@H](CCC(N)=O)NC(=O)[C@H](Cc2c[nH]c3ccccc23)NC(=O)[C@H](Cc2ccccc2)NC(=O)CNC1=O, EE-02 with F7W) [EE-36] has Kd below 400 nM. Can you tell?
## Output F

## Input I wonder whether CEMGFFADC (HELM PEPTIDE1{C.E.M.G.F.F.A.D.C.[am]}$PEPTIDE1,PEPTIDE1,1:R3-9:R3$$$V2.0; SMILES CSCC[C@@H]1NC(=O)[C@H](CCC(=O)O)NC(=O)[C@@H](N)CSSC[C@@H](C(N)=O)NC(=O)[C@H](CC(=O)O)NC(=O)[C@H](C)NC(=O)[C@H](Cc2ccccc2)NC(=O)[C@H](Cc2ccccc2)NC(=O)CNC1=O, EE-02 without A1 and G11 and with Q8A) [EE-44 (CEMGFFADC)] has Kd below 400 nM. Can you tell?
## Output T

## Input I wonder whether ACEMGFFLDCG (HELM PEPTIDE1{A.C.E.M.G.F.F.L.D.C.G.[am]}$PEPTIDE1,PEPTIDE1,2:R3-10:R3$$$V2.0; SMILES CSCC[C@@H]1NC(=O)[C@H](CCC(=O)O)NC(=O)[C@@H](NC(=O)[C@H](C)N)CSSC[C@@H](C(=O)NCC(N)=O)NC(=O)[C@H](CC(=O)O)NC(=O)[C@H](CC(C)C)NC(=O)[C@H](Cc2ccccc2)NC(=O)[C@H](Cc2ccccc2)NC(=O)CNC1=O, EE-02 with Q8L) [EE-41 (ACEMGFFLDCG)] has Kd below 400 nM. Can you tell?
## Output T

## Input I wonder whether ACEXGFFQDCG (norleucine (Nle) at position 4; free N-terminal amine; C-terminal amide; disulphide bond between Cys2 and Cys10, EE-02 with M4 replaced by norleucine) [EE-22] has Kd below 400 nM. Can you tell?
## Output F
